- Tested on: E. coli
- test_description: AK assay 384-well format, Prestwick library screening
- Format: cell-based, Escherichia coli
- condition_summary: Escherichia coli, 3 h; 50 μM final drug concentration; planktonic; cutoff for positive 3-fold increase; read-out: AK-based Prestwick Library Screening Results, E. coli (fold increase in extracellular AK activity)
The following compounds are listed with their measured fold induction at 50 µM values.

Look over these answered cases.
{"compound": "Cc1cc2nc3c(=O)[nH]c(=O)nc-3n(C[C@H](O)[C@H](O)[C@H](O)CO)c2cc1C", "fold induction at 50 µM": 1.1}
{"compound": "Cc1c2ccncc2c(C)c2c1[nH]c1ccccc12", "fold induction at 50 µM": 1.3}
{"compound": "CN1CCCCC1CCN1c2ccccc2Sc2ccc([S+](C)[O-])cc21 (centres unmarked) [Mesoridazine besylate]", "fold induction at 50 µM": 1.1}

Form field, fold induction at 50 µM with E. coli, item Cc1ccc(S(=O)(=O)NC(=O)NN2CCCCCC2)cc1 [Tolazamide] : 1.5

Hey, E. coli data for CCOc1ccc(NC(C)=O)cc1 : fold induction at 50 µM came out at 1.2
